Test system: Rattus norvegicus
PROTOCOL DETAILS: Effect on in vivo accumulation of 5-HTP was measured in rat corpus striatum at 50(umol/kg) dose
Type: functional
MEASURED QUANTITY: Activity

CCCN(CCC)[C@H]1Cc2c(O)cccc2C[C@H]1C (stereo in doubt; (-)-15) : <45.8 ng/g
CCCN(CCC)[C@H]1Cc2c(O)cccc2C[C@H]1C (racemic) : <57.8 ng/g
CCCN(CCC)[C@H]1Cc2c(O)cccc2C[C@@H]1C (racemic; form 2) : <27.1 ng/g

# input Endpoint output: Activity of CCCN(CCC)[C@H]1Cc2c(O)cccc2C[C@H]1C (stereo in doubt; (+)-15) . Value?
# output 115 ng/g
